# assay_details: Effect on CCNF level in human MV4-11 cells assessed as fold change at 100 nM measured after 4 hrs
# Assay type: functional
Reported fold change (FC) values for the following molecules.
Reply with just the number.

Cc1sc2c(c1C)C(c1ccc(Cl)cc1)=N[C@@H](CC(=O)N1CCC(CN3CCN(c4ccc(NC5CCC(=O)NC5=O)cc4)CC3)CC1)c1nnc(C)n1-2 (stereo partly specified) : -0.38
Cc1sc2c(c1C)C(c1ccc(Cl)cc1)=N[C@@H](CC(=O)N1CCC(CN3CCN(c4ccc(NC5CCC(=O)NC5=O)c(F)c4)CC3)CC1)c1nnc(C)n1-2 (stereo partly specified) : -1.62
Cc1sc2c(c1C)C(c1ccc(Cl)cc1)=N[C@@H](CC(=O)N1CCC(CN3CCN(c4ccc(N5CCC(=O)NC5=O)cc4)CC3)CC1)c1nnc(C)n1-2 : -0.89
Cc1sc2c(c1C)C(c1ccc(Cl)cc1)=N[C@@H](CC(=O)N1CCC(CN3CCN(c4ccc5c(c4)oc(=O)n5C4CCC(=O)NC4=O)CC3)CC1)c1nnc(C)n1-2 (stereo partly specified) : -1.74

Please look up its fold change (FC): Cc1sc2c(c1C)C(c1ccc(Cl)cc1)=N[C@@H](CC(=O)N1CCC(CN3CCN(c4cc5c(cc4F)C(=O)N(C4CCC(=O)NC4=O)C5=O)CC3)CC1)c1nnc(C)n1-2 (stereo partly specified)
-1.86

Entry to check: Cc1sc2c(c1C)C(c1ccc(Cl)cc1)=N[C@@H](CC(=O)N1CCC(CN3CCN(c4ccc5c(c4)C(=O)N(C4CCC(=O)NC4=O)C5=O)CC3)CC1)c1nnc(C)n1-2 (stereo partly specified)
-1.64

====

# assay_details: Metabolic stability in mouse liver microsomes assessed as half life
# Type: ADME, Microsome
# particulars: liver microsomes
result_type: half-life (h)
Enter your answer as a number in h; do not include the unit.

Please review the following examples before continuing.
Cc1sc2c(c1C)C(c1ccc(Cl)cc1)=N[C@@H](CC(=O)NCCc1ccc(C3CCC(=O)NC3=O)cc1)c1nnc(C)n1-2 (some centres undefined) : 0.27
Cc1sc2c(c1C)C(c1ccc(Cl)cc1)=N[C@@H](CC(=O)N1CCC(CN3CCN(c4ccc(NC5CCC(=O)NC5=O)cc4)CC3)CC1)c1nnc(C)n1-2 (some centres undefined) : 2.45
Cc1sc2c(c1C)C(c1ccc(Cl)cc1)=N[C@@H](CC(=O)NCCCOc1ccc(C3CCC(=O)NC3=O)cc1)c1nnc(C)n1-2 (some centres undefined) : 0.16

Okay, now this molecule:
May I ask what half-life has been recorded for Cc1sc2c(c1C)C(c1ccc(Cl)cc1)=N[C@@H](CC(=O)N1CCN(CC3CCN(c4ccc(C5CCC(=O)NC5=O)cc4)CC3)CC1)c1nnc(C)n1-2 (some centres undefined) ?
2.16

====

# assay_details: Volume of distribution in female CD1 mouse at 3 mg/kg, iv measured upto 24 hrs by LC-MS/MS analysis
# Format: ADME, organism-based
# particulars: in vivo
result_type: Vd (L/kg)
Reply numerically in L/kg, unit not repeated.

# input compound: Cc1sc2c(c1C)C(c1ccc(Cl)cc1)=N[C@@H](CC(=O)N1CCC(CN3CCN(c4ccc(C5CCC(=O)NC5=O)cc4)CC3)CC1)c1nnc(C)n1-2 (stereo partly specified) ; wanted: its Vd
0.85

====

Parameter half-life: see the listing below.
# assay_details: Metabolic stability in mouse liver microsomes assessed as half life
# Type: ADME, Microsome
# particulars: liver microsomes
Express your answer in min, writing the number without its unit.

Cc1sc2c(c1C)C(c1ccc(Cl)cc1)=N[C@@H](CC(=O)N1CCC(CN3CCN(c4ccc5c(c4)C(=O)N(C4CCC(=O)NC4=O)C5=O)CC3)CC1)c1nnc(C)n1-2 (stereo partly drawn) : 9.6
Cc1sc2c(c1C)C(c1ccc(Cl)cc1)=N[C@@H](CC(=O)N1CCC(CN3CCN(c4ccc(C5CCC(=O)NC5=O)cc4)CC3)CC1)c1nnc(C)n1-2 (stereo partly drawn) : 78

Now turn to the next compound.
Please look up its half-life: Cc1sc2c(c1C)C(c1ccc(Cl)cc1)=N[C@@H](CC(=O)N1CCC(CN3CCN(c4cc5c(cc4F)C(=O)N(C4CCC(=O)NC4=O)C5=O)CC3)CC1)c1nnc(C)n1-2 (stereo partly drawn)
16.8

====

# assay_details: AUC in female CD1 mouse at 3 mg/kg, iv measured upto 24 hrs by LC-MS/MS analysis
# Format: ADME, organism-based
# particulars: in vivo
result_type: AUC at 24 h (ng·h/mL)
Please give a number only; it is taken to be in ng·h/mL.

Data request, read-out AUC at 24 h, for Cc1sc2c(c1C)C(c1ccc(Cl)cc1)=N[C@@H](CC(=O)N1CCC(CN3CCN(c4ccc(C5CCC(=O)NC5=O)cc4)CC3)CC1)c1nnc(C)n1-2 (stereo partly specified)
5540

====

# assay_details: Permeability in MDCK-II cells incubated for 1 hr by UPLC/MS/UV analysis
# Format: ADME, cell-based, Canis lupus familiaris
# particulars: dog, read-out: permeability
result_type: Papp at 1 h (×10⁻⁶ cm/s)
Give the quantity in ×10⁻⁶ cm/s, number only.

Some molecules with recorded Papp at 1 h:
Cc1sc2c(c1C)C(c1ccc(Cl)cc1)=N[C@@H](CC(=O)N1CCC(CN3CCN(c4ccc(C5CCC(=O)NC5=O)cc4)CC3)CC1)c1nnc(C)n1-2 (some centres not stated) : 1.7
Cc1sc2c(c1C)C(c1ccc(Cl)cc1)=N[C@@H](CC(=O)N1CCC(CN3CCN(c4ccc(N5CCC(=O)NC5=O)cc4)CC3)CC1)c1nnc(C)n1-2 : 0.29
Cc1sc2c(c1C)C(c1ccc(Cl)cc1)=N[C@@H](CC(=O)N1CCC(CN3CCN(c4cc5c(cc4F)C(=O)N(C4CCC(=O)NC4=O)C5=O)CC3)CC1)c1nnc(C)n1-2 (some centres not stated) : 10.5

I would be grateful if you could share the reported Papp at 1 h for Cc1sc2c(c1C)C(c1ccc(Cl)cc1)=N[C@@H](CC(=O)N1CCC(CN3CCN(c4ccc5c(c4)n(C)c(=O)n5C4CCC(=O)NC4=O)CC3)CC1)c1nnc(C)n1-2 (some centres not stated) .
0.95

Now the same for Cc1sc2c(c1C)C(c1ccc(Cl)cc1)=N[C@@H](CC(=O)N1CCC(CN3CCN(c4ccc5c(c4)oc(=O)n5C4CCC(=O)NC4=O)CC3)CC1)c1nnc(C)n1-2 (some centres not stated)
1.2

Field entry: Cc1sc2c(c1C)C(c1ccc(Cl)cc1)=N[C@@H](CC(=O)N1CCC(CN3CCN(c4ccc5c(c4)C(=O)N(C4CCC(=O)NC4=O)C5=O)CC3)CC1)c1nnc(C)n1-2 (some centres not stated)
0.79

Subsequent entry: Cc1sc2c(c1C)C(c1ccc(Cl)cc1)=N[C@@H](CC(=O)N1CCC(CN3CCN(c4ccc5c(c4)CN(C4CCC(=O)NC4=O)C5=O)CC3)CC1)c1nnc(C)n1-2 (some centres not stated)
3.4

====

# assay_details: Chemical stability in human HD-MB03 cell culture media assessed as half life
# Format: physicochemical
result_type: half-life (h)
# unit: h | format: bare number

I'd like to know its half-life. The molecule in question is Cc1sc2c(c1C)C(c1ccc(Cl)cc1)=N[C@@H](CC(=O)NCCCCNC(=O)COc1cccc3c1C(=O)N(C1CCC(=O)NC1=O)C3=O)c1nnc(C)n1-2 (stereo partly specified)
4.2

====

# assay_details: Metabolic stability in mouse liver microsomes assessed as half life
# Assay type: ADME, Microsome
# particulars: liver microsomes
half-life under 90 min gets Fulfilled, anything at or over 90 min gets Not fulfilled.

Cc1sc2c(c1C)C(c1ccc(Cl)cc1)=N[C@@H](CC(=O)N1CCC(CN3CCN(c4ccc5c(c4)n(C)c(=O)n5C4CCC(=O)NC4=O)CC3)CC1)c1nnc(C)n1-2 (stereo partly specified) : Not fulfilled

Lab note: half-life threshold 90 min. Does this compound come in strictly under it? Cc1sc2c(c1C)C(c1ccc(Cl)cc1)=N[C@@H](CC(=O)N1CCC(CN3CCN(c4ccc(N5CCC(=O)NC5=O)cc4)CC3)CC1)c1nnc(C)n1-2
Fulfilled

Same again, this time with Cc1sc2c(c1C)C(c1ccc(Cl)cc1)=N[C@@H](CC(=O)N1CC(COc3ccc(C4CCC(=O)NC4=O)cc3)C1)c1nnc(C)n1-2 (stereo partly specified)
Fulfilled

Same question, Cc1sc2c(c1C)C(c1ccc(Cl)cc1)=N[C@@H](CC(=O)N1CCC(CN3CCN(c4ccc(NC5CCC(=O)NC5=O)c(F)c4)CC3)CC1)c1nnc(C)n1-2 (stereo partly specified) this time
Not fulfilled

Also Cc1sc2c(c1C)C(c1ccc(Cl)cc1)=N[C@@H](CC(=O)N1CCN(c3ccc(C4CCC(=O)NC4=O)cc3)CC1)c1nnc(C)n1-2 (stereo partly specified) ?
Fulfilled

Also Cc1sc2c(c1C)C(c1ccc(Cl)cc1)=N[C@@H](CC(=O)OC(C)(C)C)c1nnc(C)n1-2 ?
Fulfilled
